Parameter Maximum cytokine response Murine: see the listing below.
- System: RAW264.7 cells
- METHOD NOTES: Cytokine (TNFα) response of mouse macrophage cell line; Table 2 'Murine'
- Format: cell-based
- Parameters: unit not given here
- CONDITION INFO: NR = no response
- Procedure: Compounds were also tested in a mouse macrophage cell line (FIG. 4B). RAW264.7 cells were subjected to increasing concentrations of the compounds and assessed for production of the cytokine TNFα.
ASSAY ENDPOINT: Maximum cytokine response Murine

1) CCCCCCCCCCOc1cc(OCCCCCCCCCC)cc(C(=O)OC[C@H]2O[C@H](O[C@H]3O[C@H](COC(=O)c4cc(OCCCCCCCCCC)cc(OCCCCCCCCCC)c4)[C@@H](O)[C@H](O)[C@H]3O)[C@H](O)[C@@H](O)[C@@H]2O)c1	<.001
2) CCOc1cc(C(=O)OCC2OC(OC3OC(COC(=O)c4cc(OCC)c(OCC)c(OCC)c4)C(O)C(O)C3O)C(O)C(O)C2O)cc(OCC)c1OCC (stereo not drawn)	1.3
3) Cc1ccc(C(=O)OC[C@H]2O[C@H](O[C@H]3O[C@H](COC(=O)c4ccc(C)cc4C(F)(F)F)[C@@H](O)[C@H](O)[C@H]3O)[C@H](O)[C@@H](O)[C@@H]2O)c(C(F)(F)F)c1	2.2
4) Cc1cc(C)cc(C(=O)NC[C@H]2O[C@H](O[C@H]3O[C@H](CNC(=O)c4cc(C)cc(C)c4)[C@@H](O)[C@H](O)[C@H]3O)[C@H](O)[C@@H](O)[C@@H]2O)c1	33
5) CC(C)(C)c1cc(C(=O)OC[C@H]2O[C@H](O[C@H]3O[C@H](COC(=O)c4cc(C(C)(C)C)cc(C(C)(C)C)c4)[C@@H](O)[C@H](O)[C@H]3O)[C@H](O)[C@@H](O)[C@@H]2O)cc(C(C)(C)C)c1	0.9
6) Cc1cc(C)c(C(=O)OC[C@H]2O[C@H](O[C@H]3O[C@H](COC(=O)c4c(C)cc(C)cc4C)[C@@H](O)[C@H](O)[C@H]3O)[C@H](O)[C@@H](O)[C@@H]2O)c(C)c1	11

----------
- Test system: RAW264.7 cells
- METHOD NOTES: Cytokine (TNFα) response of mouse macrophage cell line; Table 2 'Murine'
- Assay type: cell-based
- Design: unit not given here
- CONDITION INFO: NR = no response
// classify(record): look up Maximum cytokine response Murine in ranges category 1: < 2; category 2: ≥ 2 and < 3; category 3: ≥ 3

1. O=C(OC[C@H]1O[C@H](O[C@H]2O[C@H](CO)[C@@H](O)[C@H](O)[C@H]2O)[C@H](O)[C@@H](O)[C@@H]1O)c1ccc([N+](=O)[O-])cc1[N+](=O)[O-]	category 3
2. CCCOc1cc(C(=O)OC[C@H]2O[C@H](O[C@H]3O[C@H](COC(=O)c4cc(OCCC)c(OCCC)c(OCCC)c4)[C@@H](O)[C@H](O)[C@H]3O)[C@H](O)[C@@H](O)[C@@H]2O)cc(OCCC)c1OCCC	category 1
3. CCOc1cc(OCC)cc(C(=O)NC[C@H]2O[C@H](O[C@H]3O[C@H](CNC(=O)c4cc(OCC)cc(OCC)c4)[C@@H](O)[C@H](O)[C@H]3O)[C@H](O)[C@@H](O)[C@@H]2O)c1	category 3
4. O=C(OC[C@H]1O[C@H](O[C@H]2O[C@H](COC(=O)c3ccccc3C(F)(F)F)[C@@H](O)[C@H](O)[C@H]2O)[C@H](O)[C@@H](O)[C@@H]1O)c1ccccc1C(F)(F)F	category 1
5. CCc1cc(CC)cc(C(=O)OCC2OC(OC3OC(COC(=O)c4cc(CC)cc(CC)c4)C(O)C(O)C3O)C(O)C(O)C2O)c1 (stereo not shown)	category 2
6. CCCCCOc1cc(OCCCCC)cc(C(=O)OC[C@H]2O[C@H](O[C@H]3O[C@H](COC(=O)c4cc(OCCCCC)cc(OCCCCC)c4)[C@@H](O)[C@H](O)[C@H]3O)[C@H](O)[C@@H](O)[C@@H]2O)c1	category 1
7. Cc1cc(C)c(C)c(C(=O)OC[C@H]2O[C@H](O[C@H]3O[C@H](COC(=O)c4c(C)c(C)cc(C)c4C)[C@@H](O)[C@H](O)[C@H]3O)[C@H](O)[C@@H](O)[C@@H]2O)c1C	category 3
8. O=C(OC[C@H]1O[C@H](O[C@H]2O[C@H](COC(=O)c3ccccc3Nc3ccccc3)[C@@H](O)[C@H](O)[C@H]2O)[C@H](O)[C@@H](O)[C@@H]1O)c1ccccc1Nc1ccccc1	category 2
9. CCCCOc1cc(C(=O)OC[C@H]2O[C@H](O[C@H]3O[C@H](COC(=O)c4cc(OCCCC)c(OCCCC)c(OCCCC)c4)[C@@H](O)[C@H](O)[C@H]3O)[C@H](O)[C@@H](O)[C@@H]2O)cc(OCCCC)c1OCCCC	category 1
10. CC(C)c1cc(C(=O)OC[C@H]2O[C@H](O[C@H]3O[C@H](COC(=O)c4cc(C(C)C)cc(C(C)C)c4O)[C@@H](O)[C@H](O)[C@H]3O)[C@H](O)[C@@H](O)[C@@H]2O)c(O)c(C(C)C)c1	category 2
11. COc1ccc(/C=C/C(=O)OC[C@H]2O[C@H](O[C@H]3O[C@H](COC(=O)/C=C/c4ccc(OC)c(OC)c4)[C@@H](O)[C@H](O)[C@H]3O)[C@H](O)[C@@H](O)[C@@H]2O)cc1OC	category 2
12. Cc1cc(C(C)(C)C)cc(C)c1C(=O)OC[C@H]1O[C@H](O[C@H]2O[C@H](COC(=O)c3c(C)cc(C(C)(C)C)cc3C)[C@@H](O)[C@H](O)[C@H]2O)[C@H](O)[C@@H](O)[C@@H]1O	category 1
13. O=C(OC[C@H]1O[C@H](O[C@H]2O[C@H](COC(=O)c3cccc(-c4ccccc4)c3O)[C@@H](O)[C@H](O)[C@H]2O)[C@H](O)[C@@H](O)[C@@H]1O)c1cccc(-c2ccccc2)c1O	category 2
14. CC(C)(C)CC(C)(C)c1ccc(O)c(C(=O)OC[C@H]2O[C@H](O[C@H]3O[C@H](COC(=O)c4cc(C(C)(C)CC(C)(C)C)ccc4O)[C@@H](O)[C@H](O)[C@H]3O)[C@H](O)[C@@H](O)[C@@H]2O)c1	category 3

----------
Parameter Maximum cytokine response Murine: see the listing below.
- Tested on: RAW264.7 cells
- METHOD NOTES: Cytokine (TNFα) response of mouse macrophage cell line; Table 2 'Murine'
- Format: cell-based
- Design: unit not given here
- CONDITION INFO: NR = no response
- Experimental: Compounds were also tested in a mouse macrophage cell line (FIG. 4B). RAW264.7 cells were subjected to increasing concentrations of the compounds and assessed for production of the cytokine TNFα.
ASSAY ENDPOINT: Maximum cytokine response Murine

1) Cc1ccc(-c2cccc(C(=O)OC[C@H]3O[C@H](O[C@H]4O[C@H](COC(=O)c5cccc(-c6ccc(C)cc6)c5)[C@@H](O)[C@H](O)[C@H]4O)[C@H](O)[C@@H](O)[C@@H]3O)c2)cc1	2.5
2) COc1cc(-c2cccc(C(=O)OC[C@H]3O[C@H](O[C@H]4O[C@H](COC(=O)c5cccc(-c6ccc(F)c(OC)c6)c5)[C@@H](O)[C@H](O)[C@H]4O)[C@H](O)[C@@H](O)[C@@H]3O)c2)ccc1F	1.8
3) O=C(/C=C/c1ccc(O)c(O)c1)OC[C@H]1O[C@H](O[C@H]2O[C@H](COC(=O)/C=C/c3ccc(O)c(O)c3)[C@@H](O)[C@H](O)[C@H]2O)[C@H](O)[C@@H](O)[C@@H]1O	3
4) COc1cc(C)c(C(=O)OC[C@H]2O[C@H](O[C@H]3O[C@H](COC(=O)c4c(C)cc(OC)cc4OC)[C@@H](O)[C@H](O)[C@H]3O)[C@H](O)[C@@H](O)[C@@H]2O)c(OC)c1	3.3
5) COc1ccc(-c2ccc(C(=O)OC[C@H]3O[C@H](O[C@H]4O[C@H](COC(=O)c5ccc(-c6ccc(OC)cc6)cc5)[C@@H](O)[C@H](O)[C@H]4O)[C@H](O)[C@@H](O)[C@@H]3O)cc2)cc1	2

----------
- Test system: RAW264.7 cells
- METHOD NOTES: Cytokine (TNFα) response of mouse macrophage cell line; Table 2 'Murine'
- Type: cell-based
- Parameters: unit not given here
- CONDITION INFO: NR = no response
ASSAY ENDPOINT: Maximum cytokine response Murine

1) COc1cc(Br)c(CC(=O)OC[C@H]2O[C@H](O[C@H]3O[C@H](COC(=O)Cc4cc(OC)c(OC)cc4Br)[C@@H](O)[C@H](O)[C@H]3O)[C@H](O)[C@@H](O)[C@@H]2O)cc1OC [UM1082]	1.7
2) O=C(OC[C@H]1O[C@H](O[C@H]2O[C@H](COC(=O)c3cc(C(F)(F)F)ccc3C(F)(F)F)[C@@H](O)[C@H](O)[C@H]2O)[C@H](O)[C@@H](O)[C@@H]1O)c1cc(C(F)(F)F)ccc1C(F)(F)F [UM1066]	3
3) CN(C)c1cccc(C(=O)OC[C@H]2O[C@H](O[C@H]3O[C@H](COC(=O)c4cccc(N(C)C)c4)[C@@H](O)[C@H](O)[C@H]3O)[C@H](O)[C@@H](O)[C@@H]2O)c1 [UM1076]	1.3
4) O=C(OC[C@H]1O[C@H](O[C@H]2O[C@H](COC(=O)c3cc(O)cc(-c4ccccc4)c3)[C@@H](O)[C@H](O)[C@H]2O)[C@H](O)[C@@H](O)[C@@H]1O)c1cc(O)cc(-c2ccccc2)c1 [UM1061]	3
5) CCOc1cc(C(=O)OC[C@H]2O[C@H](O[C@H]3O[C@H](CO)[C@@H](O)[C@H](O)[C@H]3O)[C@H](O)[C@@H](O)[C@@H]2O)cc(OCC)c1OCC [UM1120]	11
6) CC(C)(C)c1cc(C(C)(C)C)c(O)c(C(=O)OC[C@H]2O[C@H](O[C@H]3O[C@H](COC(=O)c4c(O)c(C(C)(C)C)cc(C(C)(C)C)c4O)[C@@H](O)[C@H](O)[C@H]3O)[C@H](O)[C@@H](O)[C@@H]2O)c1O [UM1046]	0.8
7) COc1cccc(C(=O)OC[C@H]2O[C@H](O[C@H]3O[C@H](COC(=O)c4cccc(OC)c4OC)[C@@H](O)[C@H](O)[C@H]3O)[C@H](O)[C@@H](O)[C@@H]2O)c1OC [UM1013]	3
8) CC(C)(C)c1cc(C(=O)NC[C@H]2O[C@H](O[C@H]3O[C@H](CNC(=O)c4cc(C(C)(C)C)cc(C(C)(C)C)c4)[C@@H](O)[C@H](O)[C@H]3O)[C@H](O)[C@@H](O)[C@@H]2O)cc(C(C)(C)C)c1 [UM1123]	0.13
